Recorded koff by entry
Target: T1, biotinylated 6His tag-AviTag-linked mature human IL-33 (residues 112 to 270) (human, UniProt O95760 112-270, biotin on the AviTag portion (BirA))
T1 construct: made in E. coli; also called biotinylated human IL-33 protein
T1 sequence: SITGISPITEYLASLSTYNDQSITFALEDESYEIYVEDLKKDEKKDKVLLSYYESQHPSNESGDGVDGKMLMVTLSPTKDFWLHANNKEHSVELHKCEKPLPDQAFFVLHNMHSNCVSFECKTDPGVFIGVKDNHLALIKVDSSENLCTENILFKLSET
Assay: SPR, IL-33 on chip, Fab supernatant as analyte
Please give a number only; it is taken to be in s⁻¹.

A00-0036 (Fab) (Fab, V domains shown, parental clone as Fab; also called V30; parental clone (Fab)) VH: EVQLLESGGGLVQPGGSLRLSCAASGFTFSNYYMHWVRQAPGKGLEWVSSISSSSSYIYYADSVKGRFTISRDNSKNTLYLQMNSLRAEDTAVYYCARLGTRHDAFDIWGQGTLVTVSS VL: QSVLTQPPSASGTPGQRVTISCSGSSSNIGNNAVNWYQQLPGTAPKLLIYASNMRRLGVPDRFSGSKSGTSASLAISGLRSEDEADYYCAAWDDSQKAVVFGGGTKLTVL :: 0.0152
A28-2C06 (Fab) (Fab, V domains shown, Fab secreted by E. coli, tested as culture supernatant; also called V25) VH: EVQLLESGGGLVQPGGSLRLSCAASGFTFSNYYMHWVRQAPGKGLEWVSSISARSSYIYYAGSVKGRFTISRDNSKNTLYLQMNSLRAEDTAVYYCARLGTRRVAFDIWGQGTLVTVSS VL: QSVLTQPPSASGTPGQRVTISCSGSSSNIGRNAVNWYQQLPGTAPKLLIYASNMRGMGVPDRFSGSKSGTSASLAISGLRSEDEADYYCSAWDDSQKVVVFGGGTKLTVL :: 1e-05
A27-1C06 (Fab) (Fab, V domains shown, Fab secreted by E. coli, tested as culture supernatant; also called V22) VH: EVQLLESGGGLVQPGGSLRLSCAASGFTFSNYYMHWVRQAPGKGLEWVSSISARSSYIYYADSVKGRFTISRDNSKNTLYLQMNSLRAEDTAVYYCARLATRHSAFDIWGQGTLVTVSS VL: QSVLTQPPSASGTPGQRVTISCSGSSSNIGNNAVNWYQQLPGTAPKLLIYASNMRRLGVPDRFSGSKSGTSASLAISGLRSEDEADYYCGAWDDSQKAFVFGGGTKLTVL :: 1e-05
A25-2C06 (Fab) (Fab, V domains shown, Fab secreted by E. coli, tested as culture supernatant; also called V12) VH: EVQLLESGGGLVQPGGSLRLSCAASGFTFSNYYMHWVRQAPGKGLEWVSSISARSSYIYYADSVKGRFTISRDNSKNTLYLQMNSLRAEDTAVYYCARLATRNNAFDIWGQGTLVTVSS VL: QSVLTQPPSASGTPGQRVTISCSGSSSNIGRNAVNWYQQLPGTAPKLLIYASNMRVIGVPDRFSGSKSGTSASLAISGLRSEDEADYYCGAWDDSQKRYVFGGGTKLTVL :: 1.36e-05

Per the record, A12-1H04 (Fab) (Fab, V domains shown, Fab secreted by E. coli, tested as culture supernatant; also called V3) VH: EVQLLESGGGLVQPGGSLRLSCAASGFTFSDYYMDWVRQAPGKGLEWVSSISRYSGYVYYADSVKGRFTISRDNSKNTLYLQMNSLRAEDTAVYYCARDIGGMDVWGQGTLVTVSS VL: QSVLTQPPSASGTPGQRVTISCTGSSSNIGAVYNVHWYQQLPGTAPKLLIYRNNQRPSGVPDRFSGSKSGTSASLAISGLRSEDEADYYCQSYDSSRWVFGGGTKLTVL has koff of 1.94e-05
